Taken from ChEMBL document CHEMBL5325415.

# SUBJECT OF TEST: Falcipain 2 (Plasmodium falciparum)
# Sequence (Q9N6S8 whole entry): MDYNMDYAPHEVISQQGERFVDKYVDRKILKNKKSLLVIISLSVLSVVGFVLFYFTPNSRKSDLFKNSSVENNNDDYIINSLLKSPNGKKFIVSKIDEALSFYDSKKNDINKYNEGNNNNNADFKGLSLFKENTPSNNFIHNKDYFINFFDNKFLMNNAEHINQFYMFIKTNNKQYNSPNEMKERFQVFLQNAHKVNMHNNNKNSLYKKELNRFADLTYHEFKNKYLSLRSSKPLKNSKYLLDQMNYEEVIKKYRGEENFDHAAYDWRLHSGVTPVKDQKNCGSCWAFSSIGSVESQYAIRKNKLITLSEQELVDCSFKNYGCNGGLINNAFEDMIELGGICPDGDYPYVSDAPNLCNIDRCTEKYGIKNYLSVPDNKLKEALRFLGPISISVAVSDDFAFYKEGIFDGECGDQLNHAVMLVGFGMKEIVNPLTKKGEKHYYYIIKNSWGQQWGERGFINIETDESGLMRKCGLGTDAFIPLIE
# ASSAY TEXT: Inhibition of Plasmodium falciparum FP-2 using Z-Leu-Arg-AMC as substrate pretreated with enzyme for 30 mins followed by substrate addition and measured for 30 mins by spectrofluorometry
pIC50: −log10 of the molar value.
Label rule met when pIC50 is at or above 6; otherwise label rule not met.

CHEM SMILES	DISCRETE LABEL
C[C@H]1[C@@H](Oc2ccc(/C=N/NC(=S)Nc3ccccc3F)cc2)O[C@@H]2O[C@@]3(C)CC[C@H]4[C@H](C)CC[C@@H]1[C@@]24OO3	rule not met
C=CCn1c(SCC(=O)Nc2sc3c(c2C(N)=O)CCC3)nc2scc(-c3ccc(Cl)cc3)c2c1=O	rule not met
O=C(N[C@H](Cc1c[nH]c2ccccc12)C(=O)NCc1ccccc1)Oc1ccccc1	rule not met
C=CCn1c(SCC(=O)Nc2sc3c(c2C(N)=O)CCC3)nc2sc3c(c2c1=O)CCCC3	rule not met
C=CCn1c(SCC(=O)Nc2sc3c(c2C(N)=O)CCC3)nc2scc(-c3ccccc3)c2c1=O	rule not met

Query block: Check the entry C[C@H]1[C@H](OC(=O)c2ccc(/C=N/NC(=O)Nc3ccccc3F)cc2)O[C@@H]2O[C@@]3(C)CC[C@H]4[C@H](C)CC[C@@H]1[C@@]24OO3 : does pIC50 equal or exceed 6?
Result block: rule met

Query block: Check the entry O=C(/C=C\c1ccc(O)c(O)c1)O[C@H]1CO[C@@H](Oc2c(-c3ccc(O)cc3)oc3cc(O)cc(O)c3c2=O)[C@H](OC(=O)/C=C/c2ccc(O)cc2)[C@H]1O : does pIC50 equal or exceed 6?
Result block: rule met

Query block: Check the entry CCOc1cccc(NC(=S)N/N=C/c2ccc(O[C@H]3O[C@@H]4O[C@@]5(C)CC[C@H]6[C@H](C)CC[C@@H]([C@H]3C)[C@@]46OO5)cc2)c1 : does pIC50 equal or exceed 6?
Result block: rule met

Query block: Check the entry Cc1cc(C)cc(NC(=O)N/N=C/c2ccc(C(=O)O[C@@H]3O[C@@H]4O[C@@]5(C)CC[C@H]6[C@H](C)CC[C@@H]([C@H]3C)[C@@]46OO5)cc2)c1 : does pIC50 equal or exceed 6?
Result block: rule met

Query block: Check the entry O=C(N[C@H](Cc1c[nH]c2ccccc12)C(=O)NCc1ccc([N+](=O)[O-])cc1)Oc1ccccc1 : does pIC50 equal or exceed 6?
Result block: rule not met

Query block: Check the entry CCOc1ccc(NC(=O)N/N=C/c2ccc(C(=O)O[C@@H]3O[C@@H]4O[C@@]5(C)CC[C@H]6[C@H](C)CC[C@@H]([C@H]3C)[C@@]46OO5)cc2)cc1 : does pIC50 equal or exceed 6?
Result block: rule met
